These entries and their values trace back to patent US10851073B2.

Form field: IC50 (one value per entry).
Target: His tagged full-length PTPN1 protein (Homo sapiens)
Sequence (P18031 with tags, fused parts or gaps): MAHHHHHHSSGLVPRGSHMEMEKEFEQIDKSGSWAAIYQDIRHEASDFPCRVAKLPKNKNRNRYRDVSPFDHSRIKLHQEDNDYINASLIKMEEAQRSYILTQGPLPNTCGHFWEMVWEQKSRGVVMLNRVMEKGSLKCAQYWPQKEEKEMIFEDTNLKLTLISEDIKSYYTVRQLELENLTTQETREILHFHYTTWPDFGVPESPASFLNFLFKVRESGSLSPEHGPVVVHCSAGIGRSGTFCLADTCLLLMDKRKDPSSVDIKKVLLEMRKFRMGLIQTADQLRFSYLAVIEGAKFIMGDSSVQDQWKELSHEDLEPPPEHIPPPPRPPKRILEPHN

Compound: O=C1CN(c2c(O)cc3c(c2F)CC(NCCc2ccccn2)CC3)S(=O)(=O)N1 (stereo not drawn) [Compound 135]
Assay Value: 10 to 100 nM
//
Compound: O=C1CN(c2c(O)cc3c(c2F)CC(CCC2CC2)CC3)S(=O)(=O)N1 (stereo not drawn) [Compound 105]
Assay Value: 1 to 10 nM
//
Compound: O=C1CN(c2c(O)cc3c(c2F)CC(NCCC2CCCCC2)CC3)S(=O)(=O)N1 (stereo not drawn) [Compound 173]
Assay Value: 1 to 10 nM

Prompt: State, in one line, measured IC50 of O=C1CN(c2c(O)cc3c(c2F)C[C@H](NCCC(F)F)CC3)S(=O)(=O)N1 (single isomer, unassigned) [Compound 260]
Completion: 1 to 10 nM

Prompt: Entry COC(C)(C)CCNC1CCc2cc(O)c(N3CC(=O)NS3(=O)=O)c(F)c2C1 (stereo not drawn) [Compound 122] needs its IC50 filled in; supply it.
Completion: 10 to 100 nM

---

// reported IFNγ [pg/mL] anti-CD3/CD28 per item
Test system: Pan T cells isolated from C57BL6 splenocytes
Experiment: T cell function assays (IFNγ and TNFα in supernatants)
Format: cell-based, mouse
Settings: 0.3 μM compound, 3 days, anti-CD3/CD28 stimulation
Hi! Could you send only the number? It should be in pg/mL, unit omitted.

Consider the following illustrative entries.
Molecule: CC(C)(CCN[C@@H]1CCc2cc(O)c(N3CC(=O)NS3(=O)=O)c(F)c2C1)C(F)(F)F (single isomer, unassigned)
Parameter: IFNγ [pg/mL] anti-CD3/CD28
Unit Symbol: pg/mL
Assay Value: 168.2
--
Molecule: O=C1CN(c2c(O)cc3c(c2F)C[C@H](NCCCC(F)F)CC3)S(=O)(=O)N1 (single isomer, unassigned)
Parameter: IFNγ [pg/mL] anti-CD3/CD28
Unit Symbol: pg/mL
Assay Value: 212.9
--
Molecule: O=C1CN(c2c(O)cc3c(c2F)C[C@H](NCCC2CC2)CC3)S(=O)(=O)N1 (single isomer, unassigned)
Parameter: IFNγ [pg/mL] anti-CD3/CD28
Unit Symbol: pg/mL
Assay Value: 204.1

Please turn your attention to the following entry.
Prompt: Name the recorded IFNγ [pg/mL] anti-CD3/CD28 of the item CCC(CC)CCN[C@@H]1CCc2cc(O)c(N3CC(=O)NS3(=O)=O)c(F)c2C1 in your answer.
Completion: 148.8

---

Listing: IC50 of selected molecules
Biological target: His tagged PTPN2 (TC45) protein (Homo sapiens, UniProt P17706)
Sequence (P17706 with tags, fused parts or gaps isoform P17706-2): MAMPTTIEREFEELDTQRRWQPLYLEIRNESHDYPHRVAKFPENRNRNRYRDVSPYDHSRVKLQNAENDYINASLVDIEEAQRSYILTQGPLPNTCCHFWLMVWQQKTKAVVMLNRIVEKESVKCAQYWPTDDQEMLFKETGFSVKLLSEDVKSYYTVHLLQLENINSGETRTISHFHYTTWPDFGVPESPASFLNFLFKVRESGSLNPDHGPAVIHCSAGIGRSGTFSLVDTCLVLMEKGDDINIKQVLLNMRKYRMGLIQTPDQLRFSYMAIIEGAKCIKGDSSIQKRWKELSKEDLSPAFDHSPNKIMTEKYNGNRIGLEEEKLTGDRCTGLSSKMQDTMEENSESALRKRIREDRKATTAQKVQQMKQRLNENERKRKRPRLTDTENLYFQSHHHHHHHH

The following molecules have reported results that may help.
Molecule: O=C1CN(c2c(O)cc3c(c2F)CC(NCCc2ccccn2)CC3)S(=O)(=O)N1 (stereo not shown) [Compound 135]
IC50: 0.01 to 0.1 µM
//
Molecule: O=C1CN(c2c(O)cc3c(c2F)CC(OCC2CC(F)(F)C2)CC3)S(=O)(=O)N1 (stereo not shown) [Compound 119]
IC50: 0.001 to 0.01 µM
//
Molecule: CC(C)CCN(CCC(C)C)CC1Cc2cc(O)c(N3CC(=O)NS3(=O)=O)c(F)c2C1 (stereo not shown) [Compound 269]
IC50: 0.001 to 0.01 µM

Next item in the queue.
Prompt: Recall the reported IC50 of CC(C)CCN(C)C1CCc2cc(O)c(N3CC(=O)NS3(=O)=O)c(F)c2C1 (stereo not shown) [Compound 128] on His tagged PTPN2 (TC45) protein (Homo sapiens, UniProt P17706) and write it down.
Completion: 0.001 to 0.01 µM

---

Parameter IC50: see the listing below.
Target: His tagged PTPN2 (TC45) protein (Homo sapiens)
Sequence (P17706 with tags, fused parts or gaps isoform P17706-2): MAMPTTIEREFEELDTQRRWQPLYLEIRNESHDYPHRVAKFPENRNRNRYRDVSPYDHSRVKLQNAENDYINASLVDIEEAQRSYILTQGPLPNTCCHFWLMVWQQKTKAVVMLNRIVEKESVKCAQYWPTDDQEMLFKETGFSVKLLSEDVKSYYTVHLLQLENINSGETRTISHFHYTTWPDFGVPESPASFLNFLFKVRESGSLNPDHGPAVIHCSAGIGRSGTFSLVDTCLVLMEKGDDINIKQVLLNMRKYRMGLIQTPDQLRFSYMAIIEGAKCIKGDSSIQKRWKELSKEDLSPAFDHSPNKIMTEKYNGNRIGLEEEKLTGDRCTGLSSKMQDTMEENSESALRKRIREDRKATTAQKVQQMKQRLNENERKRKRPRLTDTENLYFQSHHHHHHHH

As a guide, the following entries are already answered.
Molecule: CC(C)(C#N)CCNC1CCc2cc(O)c(N3CC(=O)NS3(=O)=O)c(F)c2C1 (stereo not shown)
Assay Value: 0.001 to 0.01 µM

Molecule: CC(C)CCNCC1Cc2cc(O)c(N3CC(=O)NS3(=O)=O)c(F)c2C1 (stereo not shown)
Assay Value: 0.01 to 0.1 µM

Molecule: COC1CCc2c(F)c(O)c(N3CC(=O)NS3(=O)=O)c(F)c2C1 (stereo not shown)
Assay Value: 0.01 to 0.1 µM

Molecule: C[Si](C)(O)CCCNC1CCc2cc(O)c(N3CC(=O)NS3(=O)=O)c(F)c2C1 (stereo not shown)
Assay Value: 0.001 to 0.01 µM

Prompt: Kindly indicate its recorded IC50. Item: O=C1CN(c2c(O)cc3c(c2F)CC(NCC(O)CC(F)(F)F)CC3)S(=O)(=O)N1 (stereo not shown)
Completion: 0.001 to 0.01 µM

Prompt: Provide measured IC50 value, entry: O=C1CN(c2c(O)cc3c(c2F)CC(NCCC2CCC2)CC3)S(=O)(=O)N1 (stereo not shown)
Completion: 0.001 to 0.01 µM

Prompt: Output IC50 of NCCOC1CCc2c(cc(O)c(N3CC(=O)NS3(=O)=O)c2F)C1 (stereo not shown)
Completion: 0.01 to 0.1 µM

Prompt: Tell me its IC50 given CC(C)CC(=N)NC1CCc2cc(O)c(N3CC(=O)NS3(=O)=O)c(F)c2C1 (stereo not shown) as the entry.
Completion: 0.01 to 0.1 µM

Prompt: Give the reported value of IC50 for this record: O=C1CN(c2c(O)cc3c(c2F)CN(CCC24CCC(CC2)C4)CC3)S(=O)(=O)N1
Completion: 0.001 to 0.01 µM

Prompt: Assign IC50 to the following record: O=C1CN(c2c(O)cc3c(c2F)CC(NCCC(F)F)CC3)S(=O)(=O)N1 (stereo not shown)
Completion: 0.01 to 0.1 µM

Prompt: Recall and state the measured IC50 for CC(C)(O)CCOC1CCc2cc(O)c(N3CC(=O)NS3(=O)=O)c(F)c2C1 (stereo not shown) .
Completion: 0.01 to 0.1 µM

Prompt: Report measured IC50; entry is O=C1CN(c2c(O)cc3c(c2F)C[C@H](NCCC2(C(F)(F)F)CC2)CC3)S(=O)(=O)N1 (single isomer, unassigned)
Completion: < 0.001 µM

Prompt: Provide measured IC50 value, entry: CO[C@@H]1CCc2cc(O)c(N3CC(=O)NS3(=O)=O)c(F)c2C1 (single isomer, unassigned)
Completion: 0.01 to 0.1 µM

Prompt: Please give measured IC50 of the following entry: CC(C)CCN(Cc1ccccn1)C1CCc2cc(O)c(N3CC(=O)NS3(=O)=O)c(F)c2C1 (stereo not shown)
Completion: 0.001 to 0.01 µM

Prompt: Determine from records and report IC50 for O=C1CN(c2c(O)cc3c(c2F)CC(NCCN2CCC2)CC3)S(=O)(=O)N1 (stereo not shown)
Completion: 0.01 to 0.1 µM

Prompt: Output IC50 of O=C1CN(c2c(O)cc3c(c2F)CN(C[C@H]2C[C@@H]2c2ccncc2)CC3)S(=O)(=O)N1 (racemic)
Completion: 0.01 to 0.1 µM

---

Target: His tagged PTPN2 (TC45) protein (Homo sapiens)
Sequence (P17706 with tags, fused parts or gaps isoform P17706-2): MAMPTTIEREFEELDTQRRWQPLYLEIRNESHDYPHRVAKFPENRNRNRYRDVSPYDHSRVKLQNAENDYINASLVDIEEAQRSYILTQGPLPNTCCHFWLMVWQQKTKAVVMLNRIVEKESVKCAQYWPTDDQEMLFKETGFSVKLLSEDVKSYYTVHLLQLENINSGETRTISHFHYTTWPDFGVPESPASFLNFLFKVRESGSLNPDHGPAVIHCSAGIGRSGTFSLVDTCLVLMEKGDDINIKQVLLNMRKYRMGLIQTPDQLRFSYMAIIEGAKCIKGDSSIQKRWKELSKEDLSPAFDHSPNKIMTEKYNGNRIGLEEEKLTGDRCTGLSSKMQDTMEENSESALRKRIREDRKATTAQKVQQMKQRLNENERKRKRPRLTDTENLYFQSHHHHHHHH
IC50 by entry:

Prompt: Read the entry CC(C)CCNC[C@@H]1Cc2cc(O)c(N3CC(=O)NS3(=O)=O)c(F)c2C1 (single isomer, unassigned) and write its reported IC50.
Completion: 0.001 to 0.01 µM

Prompt: Return IC50 (reported value) for this compound: O=C1CN(c2c(O)cc3c(c2F)CC(NCCCC(F)(F)F)CC3)S(=O)(=O)N1 (stereo not shown)
Completion: 0.001 to 0.01 µM

Prompt: Give the reported IC50 for this compound. O=C1CN(c2c(O)cc3c(c2F)CN(CC2CC4CCC2O4)CC3)S(=O)(=O)N1 (stereo not shown)
Completion: 0.01 to 0.1 µM

Prompt: Return value of IC50 for input CC(Cc1ccc(C(C)C)cc1)CN1CCc2cc(O)c(N3CC(=O)NS3(=O)=O)c(F)c2C1 (stereo not shown) , no commentary.
Completion: 0.01 to 0.1 µM
